EXPERIMENTAL SYSTEM: ZmCKX1 (cytokinin oxidase/dehydrogenase) (Zea mays, UniProt Q9T0N8)
Construct: gene CKX1
Sequence (Q9T0N8 19-534): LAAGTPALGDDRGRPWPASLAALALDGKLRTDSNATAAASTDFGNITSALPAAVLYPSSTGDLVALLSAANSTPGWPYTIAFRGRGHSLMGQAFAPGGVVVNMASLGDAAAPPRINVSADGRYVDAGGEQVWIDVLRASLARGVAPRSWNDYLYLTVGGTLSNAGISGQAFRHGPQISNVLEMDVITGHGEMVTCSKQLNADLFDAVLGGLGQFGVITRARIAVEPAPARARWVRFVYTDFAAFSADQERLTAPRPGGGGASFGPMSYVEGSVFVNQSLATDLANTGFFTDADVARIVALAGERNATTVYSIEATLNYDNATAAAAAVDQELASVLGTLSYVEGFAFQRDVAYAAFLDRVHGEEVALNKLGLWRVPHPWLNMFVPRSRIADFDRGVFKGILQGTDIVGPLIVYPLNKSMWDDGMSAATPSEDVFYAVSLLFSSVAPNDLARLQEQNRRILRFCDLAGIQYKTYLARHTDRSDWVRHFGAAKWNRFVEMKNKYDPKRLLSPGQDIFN
RUN DESCRIPTION: DCPIP reduction assay with purified ZmCKX1, trans-zeatin substrate; Ki from IC50 ([…]) by Cheng-Prusoff
Type: biochemical
VALUE KIND: Ki

In: # query: Ki of entry O=C(Nc1ccccc1)Nc1cnns1
Out: 1400 nM
